Target: Adenosine receptor A2a (Homo sapiens, UniProt P29274)
Sequence (P29274 whole entry): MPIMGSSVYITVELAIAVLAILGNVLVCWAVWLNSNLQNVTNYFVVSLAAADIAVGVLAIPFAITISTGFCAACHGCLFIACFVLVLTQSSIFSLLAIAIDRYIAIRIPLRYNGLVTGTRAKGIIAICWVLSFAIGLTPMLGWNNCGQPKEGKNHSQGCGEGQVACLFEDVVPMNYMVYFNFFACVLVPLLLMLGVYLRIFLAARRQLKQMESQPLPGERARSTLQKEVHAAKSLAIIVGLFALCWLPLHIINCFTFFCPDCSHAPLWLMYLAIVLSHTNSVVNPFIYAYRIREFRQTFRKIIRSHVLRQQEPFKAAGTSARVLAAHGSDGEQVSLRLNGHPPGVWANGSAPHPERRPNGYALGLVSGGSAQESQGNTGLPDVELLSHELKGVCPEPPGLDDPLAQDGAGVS
pKi: −log10 of the molar value.
Measured endpoint: pKi

Give pKi (Adenosine receptor A2a (Homo sapiens, UniProt P29274)) of the following compound: Cc1ccc(Cn2nc(C(=O)NC3C(C)(C)C4CC[C@@]3(C)C4)cc2-c2ccc(Cl)c(C)c2)cc1 (stereo partly specified)
< 5.00

====

Molecular target: AP-4 complex subunit sigma-1 (Homo sapiens, UniProt Q9Y587)
Sequence (Q9Y587 whole entry): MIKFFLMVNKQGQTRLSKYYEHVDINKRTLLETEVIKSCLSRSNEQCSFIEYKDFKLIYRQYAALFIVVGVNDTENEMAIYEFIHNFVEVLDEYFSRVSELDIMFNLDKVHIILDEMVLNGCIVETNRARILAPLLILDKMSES
Measured endpoint: Ki

Param item = Cc1ccc(Cn2nc(C(=O)NC3C(C)(C)C4CC[C@@]3(C)C4)cc2-c2ccc(Cl)c(C)c2)cc1 (stereo partly specified) ; retrieve measured Ki.
> 10 µM

====

Target: UniProt O95153
Sequence (O95153 whole entry): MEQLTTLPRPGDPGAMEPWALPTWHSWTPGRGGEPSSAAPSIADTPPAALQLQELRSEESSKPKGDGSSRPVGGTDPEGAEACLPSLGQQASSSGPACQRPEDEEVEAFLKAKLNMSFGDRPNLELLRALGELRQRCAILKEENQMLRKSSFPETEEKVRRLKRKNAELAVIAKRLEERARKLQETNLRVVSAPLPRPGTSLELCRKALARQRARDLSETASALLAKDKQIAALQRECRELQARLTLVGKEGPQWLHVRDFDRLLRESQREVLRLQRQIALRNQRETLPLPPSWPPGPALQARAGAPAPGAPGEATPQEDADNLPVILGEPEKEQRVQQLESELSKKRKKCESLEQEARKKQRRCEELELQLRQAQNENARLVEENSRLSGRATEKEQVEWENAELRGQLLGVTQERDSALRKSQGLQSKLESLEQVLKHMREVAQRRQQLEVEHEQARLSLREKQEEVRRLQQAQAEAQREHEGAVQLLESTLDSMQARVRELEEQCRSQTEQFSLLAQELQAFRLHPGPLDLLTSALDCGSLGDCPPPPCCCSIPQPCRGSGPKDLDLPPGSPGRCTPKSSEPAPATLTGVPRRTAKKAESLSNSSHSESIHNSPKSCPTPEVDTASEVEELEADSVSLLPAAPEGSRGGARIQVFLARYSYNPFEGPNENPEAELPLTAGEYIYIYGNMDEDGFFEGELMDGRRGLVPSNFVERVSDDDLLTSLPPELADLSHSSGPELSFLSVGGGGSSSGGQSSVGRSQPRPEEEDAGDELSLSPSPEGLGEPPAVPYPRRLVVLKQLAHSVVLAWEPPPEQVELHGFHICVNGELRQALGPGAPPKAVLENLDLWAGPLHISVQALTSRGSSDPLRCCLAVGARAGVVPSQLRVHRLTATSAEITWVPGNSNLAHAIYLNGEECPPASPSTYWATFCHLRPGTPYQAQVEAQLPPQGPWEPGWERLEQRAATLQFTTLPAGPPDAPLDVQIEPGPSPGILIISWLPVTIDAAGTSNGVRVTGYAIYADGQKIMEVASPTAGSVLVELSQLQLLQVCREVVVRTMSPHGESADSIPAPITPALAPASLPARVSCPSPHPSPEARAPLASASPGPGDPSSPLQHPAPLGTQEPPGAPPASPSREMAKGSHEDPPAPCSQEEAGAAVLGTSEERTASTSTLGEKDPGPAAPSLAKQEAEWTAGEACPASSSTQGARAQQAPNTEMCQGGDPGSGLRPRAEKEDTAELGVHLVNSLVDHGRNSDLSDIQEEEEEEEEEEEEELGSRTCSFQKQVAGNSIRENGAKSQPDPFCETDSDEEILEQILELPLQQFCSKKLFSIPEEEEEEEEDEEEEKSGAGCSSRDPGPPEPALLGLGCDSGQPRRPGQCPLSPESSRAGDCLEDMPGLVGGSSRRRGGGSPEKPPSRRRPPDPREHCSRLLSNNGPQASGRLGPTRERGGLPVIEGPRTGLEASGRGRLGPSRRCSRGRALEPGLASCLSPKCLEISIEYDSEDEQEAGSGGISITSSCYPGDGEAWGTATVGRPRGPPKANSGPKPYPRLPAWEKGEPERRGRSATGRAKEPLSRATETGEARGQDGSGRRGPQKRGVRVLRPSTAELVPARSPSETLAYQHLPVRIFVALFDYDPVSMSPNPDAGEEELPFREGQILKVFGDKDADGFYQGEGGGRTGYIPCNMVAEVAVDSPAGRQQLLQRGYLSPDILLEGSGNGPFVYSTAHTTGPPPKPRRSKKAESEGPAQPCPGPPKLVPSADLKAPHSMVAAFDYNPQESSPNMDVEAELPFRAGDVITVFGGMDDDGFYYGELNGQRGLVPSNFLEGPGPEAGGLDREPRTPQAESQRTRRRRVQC
pKi: −log10 of the molar value.
Measured endpoint: pKi

I would be grateful if you could share the reported pKi for Cc1ccc(Cn2nc(C(=O)NC3C(C)(C)C4CC[C@@]3(C)C4)cc2-c2ccc(Cl)c(C)c2)cc1 (stereo partly specified) .
< 5.00

====

Molecular target: Neuronal acetylcholine receptor subunit alpha-3 (Homo sapiens)
Sequence (P32297 whole entry): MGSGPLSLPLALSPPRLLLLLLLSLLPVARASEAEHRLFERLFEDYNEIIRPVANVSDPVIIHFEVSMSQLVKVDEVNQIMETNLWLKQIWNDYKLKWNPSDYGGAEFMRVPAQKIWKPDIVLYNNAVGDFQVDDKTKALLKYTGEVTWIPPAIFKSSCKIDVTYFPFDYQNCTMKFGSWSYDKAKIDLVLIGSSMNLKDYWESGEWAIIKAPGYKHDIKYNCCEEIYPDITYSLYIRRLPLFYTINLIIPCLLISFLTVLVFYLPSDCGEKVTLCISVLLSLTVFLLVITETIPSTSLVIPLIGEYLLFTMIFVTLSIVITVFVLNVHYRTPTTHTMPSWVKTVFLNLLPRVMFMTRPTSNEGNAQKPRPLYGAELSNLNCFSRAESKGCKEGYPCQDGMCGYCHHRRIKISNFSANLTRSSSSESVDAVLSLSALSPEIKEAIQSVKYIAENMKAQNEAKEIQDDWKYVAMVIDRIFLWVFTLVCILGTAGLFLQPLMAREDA
pKi: −log10 of the molar value.
Measured endpoint: pKi

Could you tell me which pKi is on file for Cc1ccc(Cn2nc(C(=O)NC3C(C)(C)C4CC[C@@]3(C)C4)cc2-c2ccc(Cl)c(C)c2)cc1 (stereo partly specified) ?
< 5.00

====

Target: Muscarinic acetylcholine receptor M1 (Homo sapiens)
Sequence (P11229 whole entry): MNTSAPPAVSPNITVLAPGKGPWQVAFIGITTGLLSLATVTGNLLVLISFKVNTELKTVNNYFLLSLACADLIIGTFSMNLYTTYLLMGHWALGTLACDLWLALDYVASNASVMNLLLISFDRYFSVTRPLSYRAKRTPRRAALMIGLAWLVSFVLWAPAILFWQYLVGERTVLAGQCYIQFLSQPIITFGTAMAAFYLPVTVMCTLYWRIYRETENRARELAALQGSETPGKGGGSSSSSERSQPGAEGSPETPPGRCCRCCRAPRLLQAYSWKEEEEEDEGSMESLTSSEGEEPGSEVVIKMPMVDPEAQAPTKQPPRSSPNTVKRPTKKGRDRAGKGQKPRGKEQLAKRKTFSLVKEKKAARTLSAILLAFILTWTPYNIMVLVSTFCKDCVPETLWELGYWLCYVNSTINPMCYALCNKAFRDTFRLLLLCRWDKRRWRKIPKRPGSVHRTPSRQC
pKi: −log10 of the molar value.
Measured endpoint: pKi

// map Cc1ccc(Cn2nc(C(=O)NC3C(C)(C)C4CC[C@@]3(C)C4)cc2-c2ccc(Cl)c(C)c2)cc1 (stereo partly specified) to recorded pKi (system: Muscarinic acetylcholine receptor M1 (Homo sapiens))
< 5.00

====

Target: Adenosine receptor A1 (Homo sapiens, UniProt P30542)
Sequence (P30542 whole entry): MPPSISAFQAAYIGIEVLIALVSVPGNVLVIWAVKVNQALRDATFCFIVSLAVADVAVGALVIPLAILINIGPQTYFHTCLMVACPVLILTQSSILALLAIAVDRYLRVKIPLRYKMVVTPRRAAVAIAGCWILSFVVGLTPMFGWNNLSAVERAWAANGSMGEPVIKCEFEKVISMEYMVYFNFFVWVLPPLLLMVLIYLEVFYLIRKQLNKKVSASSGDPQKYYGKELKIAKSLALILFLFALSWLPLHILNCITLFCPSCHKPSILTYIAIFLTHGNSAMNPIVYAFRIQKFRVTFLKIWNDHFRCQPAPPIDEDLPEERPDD
pKi: −log10 of the molar value.
Measured endpoint: pKi

What measured pKi goes with Cc1ccc(Cn2nc(C(=O)NC3C(C)(C)C4CC[C@@]3(C)C4)cc2-c2ccc(Cl)c(C)c2)cc1 (stereo partly specified) ?
< 5.00

====

Target: Leukotriene B4 receptor 2 (Homo sapiens)
Sequence (Q9NPC1 whole entry): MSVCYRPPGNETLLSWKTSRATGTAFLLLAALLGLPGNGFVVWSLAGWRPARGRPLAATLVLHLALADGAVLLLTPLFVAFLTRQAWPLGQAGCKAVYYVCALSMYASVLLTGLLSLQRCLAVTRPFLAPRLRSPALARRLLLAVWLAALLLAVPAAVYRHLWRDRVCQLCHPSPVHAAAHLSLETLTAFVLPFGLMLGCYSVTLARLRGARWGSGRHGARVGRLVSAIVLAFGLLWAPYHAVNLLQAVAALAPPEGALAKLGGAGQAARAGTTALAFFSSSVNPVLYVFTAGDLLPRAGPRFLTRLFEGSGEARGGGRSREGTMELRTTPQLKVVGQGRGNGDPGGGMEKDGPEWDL
pKi: −log10 of the molar value.
Measured endpoint: pKi

# get_value(readout='pKi', item= Cc1ccc(Cn2nc(C(=O)NC3C(C)(C)C4CC[C@@]3(C)C4)cc2-c2ccc(Cl)c(C)c2)cc1 (stereo partly specified) )
< 5.00

====

Target: P2Y purinoceptor 1 (Homo sapiens, UniProt P47900)
Sequence (P47900 whole entry): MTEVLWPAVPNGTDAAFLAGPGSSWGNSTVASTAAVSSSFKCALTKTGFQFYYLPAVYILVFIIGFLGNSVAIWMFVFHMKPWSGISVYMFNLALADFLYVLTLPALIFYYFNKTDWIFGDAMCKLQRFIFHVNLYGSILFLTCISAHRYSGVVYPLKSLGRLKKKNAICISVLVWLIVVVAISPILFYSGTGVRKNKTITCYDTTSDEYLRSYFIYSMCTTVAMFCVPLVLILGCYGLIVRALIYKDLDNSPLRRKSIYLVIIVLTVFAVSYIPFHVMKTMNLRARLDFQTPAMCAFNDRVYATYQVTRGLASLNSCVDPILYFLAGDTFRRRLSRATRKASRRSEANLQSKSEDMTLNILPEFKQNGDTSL
pKi: −log10 of the molar value.
Measured endpoint: pKi

Could you tell me which pKi is on file for Cc1ccc(Cn2nc(C(=O)NC3C(C)(C)C4CC[C@@]3(C)C4)cc2-c2ccc(Cl)c(C)c2)cc1 (stereo partly specified) ?
< 5.00

====

Molecular target: Type-1 angiotensin II receptor (Homo sapiens)
Sequence (P30556 whole entry): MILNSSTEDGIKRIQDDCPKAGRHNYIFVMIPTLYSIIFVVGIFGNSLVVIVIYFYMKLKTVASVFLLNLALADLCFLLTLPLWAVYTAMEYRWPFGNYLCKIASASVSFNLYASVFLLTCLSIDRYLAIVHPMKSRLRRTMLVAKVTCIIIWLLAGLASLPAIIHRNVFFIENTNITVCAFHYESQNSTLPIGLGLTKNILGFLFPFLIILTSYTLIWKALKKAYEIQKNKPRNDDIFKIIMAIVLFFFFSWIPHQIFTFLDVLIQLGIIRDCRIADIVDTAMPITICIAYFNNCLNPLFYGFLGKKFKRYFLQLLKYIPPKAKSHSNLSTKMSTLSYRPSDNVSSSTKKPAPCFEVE
pKi: −log10 of the molar value.
Measured endpoint: pKi

Could you tell me which pKi is on file for Cc1ccc(Cn2nc(C(=O)NC3C(C)(C)C4CC[C@@]3(C)C4)cc2-c2ccc(Cl)c(C)c2)cc1 (stereo partly specified) ?
< 5.00
